Target: Ileal sodium/bile acid cotransporter (Rattus norvegicus, UniProt Q62633)
Sequence (Q62633 whole entry): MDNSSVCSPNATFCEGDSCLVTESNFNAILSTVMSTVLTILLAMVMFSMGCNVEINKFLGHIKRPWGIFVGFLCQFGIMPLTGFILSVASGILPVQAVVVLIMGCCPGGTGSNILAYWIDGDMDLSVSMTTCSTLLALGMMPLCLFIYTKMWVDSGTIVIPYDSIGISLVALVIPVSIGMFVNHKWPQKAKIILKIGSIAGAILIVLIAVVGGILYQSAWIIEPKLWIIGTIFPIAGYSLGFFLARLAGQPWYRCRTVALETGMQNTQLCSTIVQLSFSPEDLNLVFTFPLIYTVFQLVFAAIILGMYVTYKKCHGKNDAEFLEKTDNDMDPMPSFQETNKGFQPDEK
Experiment: TP_TRANSPORTER: uptake in ASBT-expressing COS cells
Format: functional, cell-based
Details: monkey
value_kind: Activity

{"molecule": "C[C@H](CCC(=O)NCCS(=O)(=O)O)[C@H]1CC[C@H]2[C@@H]3CC[C@@H]4C[C@H](O)CC[C@]4(C)[C@H]3C[C@H](O)[C@]12C [TAURODEOXYCHOLIC ACID]", "value_kind": "Activity", "result_value": "substrate [+]"}
{"molecule": "C[C@H](CCC(=O)NCC(=O)O)[C@H]1CC[C@H]2[C@@H]3[C@H](O)C[C@@H]4C[C@H](O)CC[C@]4(C)[C@H]3CC[C@]12C [GLYCOCHENODEOXYCHOLATE]", "value_kind": "Activity", "result_value": "substrate [+]"}
{"molecule": "C[C@H](CCC(=O)NCCS(=O)(=O)O)[C@H]1CC[C@H]2[C@@H]3[C@H](O)C[C@@H]4C[C@H](O)CC[C@]4(C)[C@H]3CC[C@]12C [TAUROCHENODEOXYCHOLATE]", "value_kind": "Activity", "result_value": "substrate [+]"}
{"molecule": "C[C@H](CCC(=O)NCCS(=O)(=O)O)[C@H]1CC[C@H]2[C@@H]3[C@@H](O)C[C@@H]4C[C@H](O)CC[C@]4(C)[C@H]3CC[C@]12C [TAURURSODIOL]", "value_kind": "Activity", "result_value": "substrate [+]"}
{"molecule": "C[C@H](CCC(=O)NCC(=O)O)[C@H]1CC[C@H]2[C@@H]3[C@@H](O)C[C@@H]4C[C@H](O)CC[C@]4(C)[C@H]3CC[C@]12C [GLYCOURSODEOXYCHOLIC ACID]", "value_kind": "Activity", "result_value": "substrate [+]"}
{"molecule": "C[C@H](CCC(=O)NCC(=O)O)[C@H]1CC[C@H]2[C@@H]3[C@H](O)C[C@@H]4C[C@H](O)CC[C@]4(C)[C@H]3C[C@H](O)[C@]12C [GLYCOCHOLIC ACID]", "value_kind": "Activity", "result_value": "substrate [+]"}
{"molecule": "C[C@H](CCC(=O)NCC(=O)O)[C@H]1CC[C@H]2[C@@H]3CC[C@@H]4C[C@H](O)CC[C@]4(C)[C@H]3C[C@H](O)[C@]12C [GLYCODEOXYCHOLATE]", "value_kind": "Activity", "result_value": "substrate [+]"}

Hey, just so you know, these numbers are from ChEMBL document CHEMBL2074318.
